system: Nrf2 / ARE-dependent luciferase in AREc32 reporter cell line; experiment: AREc32 luciferase reporter activation (Nrf2 induction); format: cell-based, human; conditions: Table 2; ratio to RTA402
Property name: Relative Avg AREc32 EC2X Relative to RTA402 (fold)
Please reply with the bare figure in fold and do not write the unit itself.

- Compound: "COC(C)c1noc([C@]23CC[C@@H](C)[C@H](C)[C@H]2[C@H]2C(=O)C=C4[C@@]5(C)C=C(C#N)C(=O)C(C)(C)[C@@H]5CC[C@@]4(C)[C@]2(C)CC3)n1 (stereo partly shown) [Compound T6]"
  Unit annotation: "fold"
  Test result: 1.03
- Compound: "CCNC(=O)N[C@]12CC[C@@H](C)[C@H](C)[C@H]1[C@H]1C(=O)C=C3[C@@]4(C)C=C(C#N)C(=O)C(C)(C)[C@@H]4CC[C@@]3(C)[C@]1(C)CC2 [Compound T65]"
  Unit annotation: "fold"
  Test result: 1.14

The recorded Relative Avg AREc32 EC2X Relative to RTA402 (fold) with Nrf2 / ARE-dependent luciferase in AREc32 reporter cell line for C[C@@H]1[C@H]2[C@H]3C(=O)C=C4[C@@]5(C)C=C(C#N)C(=O)C(C)(C)[C@@H]5CC[C@@]4(C)[C@]3(C)CC[C@@]2(CNC(=O)C2CCC2)CC[C@H]1C [Compound T25] was 0.259

The recorded Relative Avg AREc32 EC2X Relative to RTA402 (fold) with Nrf2 / ARE-dependent luciferase in AREc32 reporter cell line for COC(=O)N[C@]12CC[C@@H](C)[C@H](C)[C@H]1[C@H]1C(=O)C=C3[C@@]4(C)C=C(C#N)C(=O)C(C)(C)[C@@H]4CC[C@@]3(C)[C@]1(C)CC2 [Compound T66] was 0.857

The recorded Relative Avg AREc32 EC2X Relative to RTA402 (fold) with Nrf2 / ARE-dependent luciferase in AREc32 reporter cell line for C[C@@H]1[C@H]2[C@H]3C(=O)C=C4[C@@]5(C)C=C(C#N)C(=O)C(C)(C)[C@@H]5CC[C@@]4(C)[C@]3(C)CC[C@@]2(C(=O)NCC(F)F)CC[C@H]1C [Compound T87] was 2.0

The recorded Relative Avg AREc32 EC2X Relative to RTA402 (fold) with Nrf2 / ARE-dependent luciferase in AREc32 reporter cell line for C[C@@H]1[C@H]2[C@H]3C(=O)C[C@@H]4[C@@]5(C)C=C(C#N)C(=O)C(C)(C)[C@@H]5CC[C@@]4(C)[C@]3(C)CC[C@@]2(CNC(=O)OC(C)(C)C)CC[C@H]1C [Compound T106] was 28.2

----------
test system: IFNγ-induced NO production in RAW 264.7 cells; test: Nitric Oxide Suppression Assay (IFNγ-induced NO, Griess nitrite readout); type: cell-based, mouse; settings: Mus musculus, RAW264.7, Table 3; ursolic acid derivatives; read-out: Avg NO IC50 (nM) (Mean ± SD)
Reported values of IC50 for individual entries
Please reply with the bare figure in nM and do not write the unit itself.

The examples below pair each entry with its known result.
- Compound: "Cc1nc([C@]23CC[C@@H](C)[C@H](C)[C@H]2[C@H]2C(=O)C=C4[C@@]5(C)C=C(C#N)C(=O)C(C)(C)[C@@H]5CC[C@@]4(C)[C@]2(C)CC3)no1 [Compound T82]"
  IC50 (nM): 5.58
- Compound: "C[C@@H]1[C@H]2[C@H]3C(=O)C=C4[C@@]5(C)C=C(C#N)C(=O)C(C)(C)[C@@H]5CC[C@@]4(C)[C@]3(C)CC[C@@]2(CNCCO)CC[C@H]1C [Compound T40]"
  IC50 (nM): 25.8
- Compound: "C[C@@H]1[C@H]2[C@H]3C(=O)C=C4[C@@]5(C)C=C(C#N)C(=O)C(C)(C)[C@@H]5CC[C@@]4(C)[C@]3(C)CC[C@@]2(Cn2ccnn2)CC[C@H]1C [Compound T50]"
  IC50 (nM): 9.81
- Compound: "C[C@@H]1[C@H]2[C@H]3C(=O)C=C4[C@@]5(C)C=C(C#N)C(=O)C(C)(C)[C@@H]5CC[C@@]4(C)[C@]3(C)CC[C@@]2(CN2CCN(C)C2=O)CC[C@H]1C [Compound T44]"
  IC50 (nM): 5.5

GET /value?item= CCc1noc([C@]23CC[C@@H](C)[C@H](C)[C@H]2[C@H]2C(=O)C=C4[C@@]5(C)C=C(C#N)C(=O)C(C)(C)[C@@H]5CC[C@@]4(C)[C@]2(C)CC3)n1 [Compound T4] &field=IC50 returns 14.8

----------
test system: IFNγ-induced NO production in RAW 264.7 cells; assay: Nitric Oxide Suppression Assay (IFNγ-induced NO, Griess nitrite readout); format: cell-based, mouse; settings: Table 2; ratio to RTA402
Hi all, reminder that labels come from Avg NO IC50 Relative to RTA402 (fold), split as interval 1 (below 4 fold), interval 2 (4 fold to below 7 fold), interval 3 (7 fold or more)

- Compound: "CC(=O)N[C@]12CC[C@@H](C)[C@H](C)[C@H]1[C@H]1C(=O)C=C3[C@@]4(C)C=C(C#N)C(=O)C(C)(C)[C@@H]4CC[C@@]3(C)[C@]1(C)CC2"
  Measured on: "IFNγ-induced NO production in RAW 264.7 cells"
  Assigned label: "interval 3"
- Compound: "C[C@@H]1[C@H]2[C@H]3C(=O)C=C4[C@@]5(C)C=C(C#N)C(=O)C(C)(C)[C@@H]5CC[C@@]4(C)[C@]3(C)CC[C@@]2(Cn2cccn2)CC[C@H]1C"
  Measured on: "IFNγ-induced NO production in RAW 264.7 cells"
  Assigned label: "interval 3"
- Compound: "C[C@@H]1[C@H]2[C@H]3C(=O)C=C4[C@@]5(C)C=C(C#N)C(=O)C(C)(C)[C@@H]5CC[C@@]4(C)[C@]3(C)CC[C@@]2(c2nc(CO)no2)CC[C@H]1C"
  Measured on: "IFNγ-induced NO production in RAW 264.7 cells"
  Assigned label: "interval 1"
- Compound: "C[C@H]1[C@H](C)CC[C@]2(Cn3cncn3)CC[C@]3(C)C(O)(C(=O)C=C4[C@@]5(C)C=C(C#N)C(=O)C(C)(C)[C@@H]5CC[C@]43C)[C@H]12 (stereo partly shown)"
  Measured on: "IFNγ-induced NO production in RAW 264.7 cells"
  Assigned label: "interval 1"
- Compound: "C[C@@H]1[C@H]2[C@H]3C(=O)C=C4[C@@]5(C)C=C(C#N)C(=O)C(C)(C)[C@@H]5CC[C@@]4(C)[C@]3(C)CC[C@@]2(Cn2ccnc2)CC[C@H]1C"
  Measured on: "IFNγ-induced NO production in RAW 264.7 cells"
  Assigned label: "interval 2"

Query block: Which category does the recorded Avg NO IC50 Relative to RTA402 (fold) put COC(=O)N1CCC(=O)N1C[C@]12CC[C@@H](C)[C@H](C)[C@H]1[C@H]1C(=O)C=C3[C@@]4(C)C=C(C#N)C(=O)C(C)(C)[C@@H]4CC[C@@]3(C)[C@]1(C)CC2 in?
Result block: interval 1

Query block: Which category does the recorded Avg NO IC50 Relative to RTA402 (fold) put Cc1noc([C@]23CC[C@@H](C)[C@H](C)[C@H]2[C@H]2C(=O)C=C4[C@@]5(C)C=C(C#N)C(=O)C(C)(C)[C@@H]5CC[C@@]4(C)[C@]2(C)CC3)n1 in?
Result block: interval 1

Query block: Which category does the recorded Avg NO IC50 Relative to RTA402 (fold) put C[C@@H]1[C@H]2[C@H]3C(=O)C=C4[C@@]5(C)C=C(C#N)C(=O)C(C)(C)[C@@H]5CC[C@@]4(C)[C@]3(C)CC[C@@]2(C(=O)NCC(F)F)CC[C@H]1C in?
Result block: interval 2

Query block: Which category does the recorded Avg NO IC50 Relative to RTA402 (fold) put C[C@@H]1[C@H]2[C@H]3C(=O)C=C4[C@@]5(C)C=C(C#N)C(=O)C(C)(C)[C@@H]5CC[C@@]4(C)[C@]3(C)CC[C@@]2(n2ccnc2)CC[C@H]1C in?
Result block: interval 3

Query block: Which category does the recorded Avg NO IC50 Relative to RTA402 (fold) put CC(=O)OCCNC[C@]12CC[C@@H](C)[C@H](C)[C@H]1[C@H]1C(=O)C=C3[C@@]4(C)C=C(C#N)C(=O)C(C)(C)[C@@H]4CC[C@@]3(C)[C@]1(C)CC2 in?
Result block: interval 2

----------
system: IFNγ-induced NO production in RAW 264.7 cells; assay: Nitric Oxide Suppression Assay (IFNγ-induced NO, Griess nitrite readout); assay type: cell-based, mouse; settings: Mus musculus, RAW264.7, Table 2; RAW 264.7 cells, 2 h pretreatment, 20 ng/mL interferon gamma 24 h; read-out: Avg NO IC50 (nM) (Mean ± SD)
Property name: IC50 (nM)
Please reply with the bare figure in nM and do not write the unit itself.

The examples below pair each entry with its known result.
- Molecule: "C[C@@H]1[C@H]2[C@H]3C(=O)C=C4[C@@]5(C)C=C(C#N)C(=O)C(C)(C)[C@@H]5CC[C@@]4(C)[C@]3(C)CC[C@@]2(N2CCOC2=O)CC[C@H]1C [Compound T59]"
  Measured on: "IFNγ-induced NO production in RAW 264.7 cells"
  Test result: 16
- Molecule: "COC(=O)C[C@]12CC[C@@H](C)[C@H](C)[C@H]1[C@H]1C(=O)C=C3[C@@]4(C)C=C(C#N)C(=O)C(C)(C)[C@@H]4CC[C@@]3(C)[C@]1(C)CC2 [Compound T88]"
  Measured on: "IFNγ-induced NO production in RAW 264.7 cells"
  Test result: 12.9
- Molecule: "C[C@@H]1[C@H]2[C@H]3C(=O)C=C4[C@@]5(C)C=C(C#N)C(=O)C(C)(C)[C@@H]5CC[C@@]4(C)[C@]3(C)CC[C@@]2(C(=O)NCC(F)F)CC[C@H]1C [Compound T87]"
  Measured on: "IFNγ-induced NO production in RAW 264.7 cells"
  Test result: 26.1
- Molecule: "C[C@@H]1[C@H]2[C@H]3C(=O)C=C4[C@@]5(C)C=C(C#N)C(=O)C(C)(C)[C@@H]5CC[C@@]4(C)[C@]3(C)CC[C@@]2(c2nc(CF)no2)CC[C@H]1C [Compound T11]"
  Measured on: "IFNγ-induced NO production in RAW 264.7 cells"
  Test result: 4.33

The recorded IC50 with IFNγ-induced NO production in RAW 264.7 cells for CC(=O)NC[C@]12CC[C@@H](C)[C@H](C)[C@H]1[C@H]1C(=O)C=C3[C@@]4(C)C=C(C#N)C(=O)C(C)(C)[C@@H]4CC[C@@]3(C)[C@]1(C)CC2 [Compound T22] was 3.58
